Reported normalized growth is given for each of the following compounds.
Assay: chemical genetic growth profiling, strain panel (AID 1159580);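 further: tested at 20 µM; growth read once vehicle control cultures reached saturation at 30 °C; 1 = growth at the plate median or of vehicle wells; lower values mean less growth of the strain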
Conditions: S. cerevisiae deletion strains, growth OD, locus YER155C, strain BEM2, active compounds read low
The whole screen tested about 5,500 compounds, of which about 2,000 (36%) were called active. Inconclusive results (about 18%) are left out. Some of the results follow.

>  <Compound>
COc1c(C2COc3cc4c(cc3C2=O)CC(O)C(C)(C)O4)ccc2c1CCC(C)(C)O2 (configuration not stated)

>  <normalized growth>
1.02

$$$$
>  <Compound>
Nc1nc2ncc(CNc3ccc(C(=O)N[C@@H](CCC(=O)O)C(=O)O)cc3)nc2c(=O)[nH]1

>  <normalized growth>
0.986

$$$$
>  <Compound>
O=C1O[C@@H](CO)[C@H](O)[C@@H](O)[C@@H]1O

>  <normalized growth>
1.01

$$$$
>  <Compound>
CC12CCC(CC1)C(C)(C)O2

>  <normalized growth>
1.01

$$$$
>  <Compound>
CC[C@@H](C(=O)O)[C@@H]1O[C@@H]([C@@H](C)[C@H](O)[C@H](C)C(=O)[C@H](CC)[C@H]2O[C@]3(C=C[C@@H](O)[C@]4(CC[C@@](C)(C5CC[C@](O)(CC)[C@H](C)O5)O4)O3)[C@H](C)C[C@@H]2C)[C@@H](C)C[C@H]1C (some centres not stated)

>  <normalized growth>
0.796

$$$$
>  <Compound>
OC/C=C/c1ccc(O)c(O)c1

>  <normalized growth>
0.987

$$$$
>  <Compound>
CC[C@@]1(C2O[C@@H](C3O[C@@](O)(CC)[C@H](C)C[C@@H]3C)C[C@@H]2C)CC[C@H]([C@]2(C)CCC3(C[C@H](O)[C@@H](C)[C@@H]([C@H](C)[C@@H](OC)[C@H](C)C(=O)O)O3)O2)O1 (some centres not stated)

>  <normalized growth>
0.999

$$$$
>  <Compound>
O=C(O)c1cc(=O)c(O)c2c(O)c(O)ccc2c1

>  <normalized growth>
1.02

$$$$
>  <Compound>
CCOP(=S)(OCC)SCSP(=S)(OCC)OCC

>  <normalized growth>
1.01

$$$$
>  <Compound>
CN(C)CCCO[C@H]1[C@@H](C(O)CO)OC2OC(C)(C)O[C@@H]21 (some centres not stated)

>  <normalized growth>
1

$$$$
>  <Compound>
O=c1ccn([C@@H]2O[C@H](COP(=O)(O)OP(=O)(O)OP(=O)(O)O)[C@@H](O)[C@H]2O)c(=O)[nH]1

>  <normalized growth>
1.02

$$$$
>  <Compound>
O=C(O)c1cc(O)c(O)c(O)c1

>  <normalized growth>
1.03

$$$$
>  <Compound>
CN(Cc1cnc2nc(N)nc(N)c2n1)c1ccc(C(=O)NC(CCC(=O)O)C(=O)O)cc1 (configuration not stated)

>  <normalized growth>
0.976

$$$$
>  <Compound>
Nc1nc2c(c(=O)[nH]1)N(C=O)C(CNc1ccc(C(=O)N[C@@H](CCC(=O)O)C(=O)O)cc1)CN2 (some centres not stated)

>  <normalized growth>
0.981

$$$$
>  <Compound>
CC[C@@H](C(=O)[C@@H](C)[C@@H](O)[C@H](C)[C@@H]1O[C@@H]([C@@H](CC)C(=O)O)CC[C@@H]1C)[C@H]1OC2(C=C[C@@H](O)[C@]3(CC[C@@](C)([C@H]4CC[C@](O)(CC)[C@H](C)O4)O3)O2)[C@H](C)C[C@@H]1C (some centres not stated)

>  <normalized growth>
1.03

$$$$
>  <Compound>
COc1cc(C(=O)O)cc(OC)c1O

>  <normalized growth>
1

$$$$
>  <Compound>
Nc1nc(N)c2nc(CNc3ccc(C(=O)NC(CCC(=O)O)C(=O)O)cc3)cnc2n1 (configuration not stated)

>  <normalized growth>
0.987

$$$$

====

Reported normalized growth is given for each of the following compounds.
Test: chemical genetic growth profiling, strain panel (AID 1159580);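 further: tested at 20 µM; growth read once vehicle control cultures reached saturation at 30 °C; 1 = growth at the plate median or of vehicle wells; lower values mean less growth of the strain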
Settings: S. cerevisiae deletion strains, growth OD, locus YNL250W, strain rad50, active compounds read low
Out of some 5,500 compounds screened, about 2,000 (36%) were called active. Not shown: some 18% with an inconclusive outcome. The list shows a part of the results.

>  <Compound>
COc1c(C(=O)O)ccc2c1CCC(C)(C)O2

>  <normalized growth>
0.956

$$$$
>  <Compound>
COc1ccc(C[C@H](N)C(=O)N[C@@H]2[C@@H](CO)OC(n3cnc4c(N(C)C)ncnc43)[C@@H]2O)cc1 (some centres not stated)

>  <normalized growth>
1.04

$$$$
>  <Compound>
O=C(O)c1cc(=O)c(O)c2c(O)c(O)ccc2c1

>  <normalized growth>
1.01

$$$$
>  <Compound>
COc1ccc(/C=C/c2cc(O)cc(O)c2)cc1

>  <normalized growth>
0.961

$$$$
>  <Compound>
CCOC(=O)c1ccc(N)cc1

>  <normalized growth>
0.983

$$$$
>  <Compound>
C/C=C/c1ccc(OC)cc1

>  <normalized growth>
1.02

$$$$
>  <Compound>
COc1c(C2COc3cc4c(cc3C2=O)CC(O)C(C)(C)O4)ccc2c1CCC(C)(C)O2 (configuration not stated)

>  <normalized growth>
1.05

$$$$
>  <Compound>
O=C(O)c1cc(O)c(O)c(O)c1

>  <normalized growth>
1.05

$$$$
>  <Compound>
COc1cc(C(=O)O)cc(OC)c1O

>  <normalized growth>
0.976

$$$$
>  <Compound>
COc1ccc(/C=C/c2cc(O)cc(O[C@@H]3O[C@H](CO)[C@@H](O)[C@H](O)[C@H]3O)c2)cc1O

>  <normalized growth>
1.03

$$$$
>  <Compound>
c1ccc2[nH]c(-c3cscn3)nc2c1

>  <normalized growth>
1.04

$$$$
>  <Compound>
NC(=O)c1cnccn1

>  <normalized growth>
0.998

$$$$

====

Experiment: chemical genetic growth profiling, strain panel (AID 1159580);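 further: tested at 20 µM; growth read once vehicle control cultures reached saturation at 30 °C; 1 = growth at the plate median or of vehicle wells; lower values mean less growth of the strain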
Conditions: S. cerevisiae deletion strains, growth OD, locus YLR102C, strain apc9, active compounds read low
Out of some 5,500 compounds screened, about 2,000 (36%) were called active. Not shown: some 18% with an inconclusive outcome. The list shows a part of the results.
Parameter: normalized growth

>  <Molecule>
COc1c(C(=O)O)ccc2c1CCC(C)(C)O2

>  <Parameter>
normalized growth

>  <Result>
0.986 (inactive)

$$$$
>  <Molecule>
CC1(C)C2CC(=O)O[C@@]3(C)C4=CC(=O)O[C@@H](c5ccoc5)[C@]4(C)CCC3[C@@]2(C)C=C[C@H]1O (stereo partly specified)

>  <Parameter>
normalized growth

>  <Result>
0.982 (inactive)

$$$$
>  <Molecule>
CC(=O)O[C@H]1C[C@@H](OC(C)=O)C(C)(C)C2C[C@@H](OC(C)=O)[C@]3(C)C(CC[C@@]4(C)[C@H](c5ccoc5)C(=O)[C@H]5O[C@]543)[C@]21C (stereo partly specified)

>  <Parameter>
normalized growth

>  <Result>
1.02 (inactive)

$$$$
>  <Molecule>
CC(=O)C1=C(O)C2C3c4c[nH]c5cccc(c45)CC3C(C)(C)N2C1=O (stereo unspecified)

>  <Parameter>
normalized growth

>  <Result>
1.01 (inactive)

$$$$
>  <Molecule>
CCN(CC)CCOC(=O)C(Cc1cccc2ccccc12)CC1CCCO1 (stereo unspecified)

>  <Parameter>
normalized growth

>  <Result>
0.992 (inactive)

$$$$
>  <Molecule>
O=C(O)CNCP(=O)(O)O

>  <Parameter>
normalized growth

>  <Result>
1.01 (inactive)

$$$$

====

Assay: chemical genetic growth profiling, strain panel (AID 1159580);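 further: tested at 20 µM; growth read once vehicle control cultures reached saturation at 30 °C; 1 = growth at the plate median or of vehicle wells; lower values mean less growth of the strain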
Settings: S. cerevisiae deletion strains, growth OD, locus YGL078C, strain dbp3
In all, about 5,500 compounds went through this assay and about 2,000 (36%) were called active. Inconclusive results (about 18%) are left out. Cut-off read from the data, not from the text of the source: active = normalized growth mostly below about 0.91 (no sharp cut-off); inconclusive = no clear call, values can overlap the other calls; inactive = mostly above about 0.92. The list shows a part of the results.
Outcomes: true (1) (active), false (0) (inactive)

>  <Compound>
C[C@@]12C(=O)OC(=O)[C@]1(C)C1CCC2O1

>  <Assigned label>
true (1)

$$$$
>  <Compound>
CS(=O)(=O)OCCCCOS(C)(=O)=O

>  <Assigned label>
false (0)

$$$$
>  <Compound>
O=C(O)P(=O)(O)O

>  <Assigned label>
false (0)

$$$$
>  <Compound>
O=c1ccn([C@@H]2O[C@H](COP(=O)(O)OP(=O)(O)OP(=O)(O)O)[C@@H](O)[C@H]2O)c(=O)[nH]1

>  <Assigned label>
false (0)

$$$$
>  <Compound>
Nc1nc2ncc(CNc3ccc(C(=O)N[C@@H](CCC(=O)O)C(=O)O)cc3)nc2c(=O)[nH]1

>  <Assigned label>
false (0)

$$$$
>  <Compound>
CC1=CC(=O)CC(C)(C)C1(O)/C=C/C(C)=C\C(=O)O (configuration not stated)

>  <Assigned label>
false (0)

$$$$
>  <Compound>
O=C(O)c1cc(=O)c(O)c2c(O)c(O)ccc2c1

>  <Assigned label>
false (0)

$$$$
>  <Compound>
CC1(C)CC2C1CCC1(C)OC2(C)CCC1O (configuration not stated)

>  <Assigned label>
false (0)

$$$$
>  <Compound>
CN(Cc1cc(Br)cc(Br)c1N)C1CCCCC1

>  <Assigned label>
false (0)

$$$$
>  <Compound>
NC(=O)c1cc[n+](CC2=C(C(=O)O)N3C(=O)C(NC(=O)C(c4ccccc4)S(=O)(=O)[O-])C3SC2)cc1 (configuration not stated)

>  <Assigned label>
false (0)

$$$$
>  <Compound>
C[C@@H]1C[C@@H]([C@H](O)CC2CC(=O)NC(=O)C2)C(=O)[C@@H](C)C1

>  <Assigned label>
true (1)

$$$$
>  <Compound>
COc1cc2c(cc1O)CC1c3c(cc(O)c(OC)c3-2)CCN1C (configuration not stated)

>  <Assigned label>
false (0)

$$$$
>  <Compound>
CCOC(=O)c1ccc(N)cc1

>  <Assigned label>
false (0)

$$$$
>  <Compound>
Cc1cccc(CN2CCN(C(c3ccccc3)c3ccc(Cl)cc3)CC2)c1 (configuration not stated)

>  <Assigned label>
false (0)

$$$$
>  <Compound>
COc1ccc2c(c1O)-c1c(OC)c(OC)cc3c1[C@H](C2)N(C)CC3

>  <Assigned label>
false (0)

$$$$
>  <Compound>
CC1=C(/C=C/C(C)=C/C=C/C(C)=C\C(=O)O)C(C)(C)CCC1

>  <Assigned label>
false (0)

$$$$
>  <Compound>
OCC(S)CS (configuration not stated)

>  <Assigned label>
false (0)

$$$$
>  <Compound>
COc1ccccc1-c1cc(=O)c2c(OC)cccc2o1

>  <Assigned label>
false (0)

$$$$
>  <Compound>
NC(=O)c1cnccn1

>  <Assigned label>
false (0)

$$$$
>  <Compound>
CCN(CC)CCOC(=O)C(Cc1cccc2ccccc12)CC1CCCO1 (configuration not stated)

>  <Assigned label>
false (0)

$$$$
>  <Compound>
O=c1cccc2n1C[C@H]1CNCC2C1

>  <Assigned label>
false (0)

$$$$
>  <Compound>
CC1(C)C2CC(=O)O[C@@]3(C)C4=CC(=O)O[C@@H](c5ccoc5)[C@]4(C)CCC3[C@@]2(C)C=C[C@H]1O (some centres not stated)

>  <Assigned label>
false (0)

$$$$
>  <Compound>
CC1=C(/C=C/C(C)=C/C=C/C(C)=C/C=C/C=C(C)/C=C/C=C(C)/C=C/C2=C(C)CCCC2(C)C)C(C)(C)CCC1

>  <Assigned label>
false (0)

$$$$
>  <Compound>
CC(=O)N[C@@H]1[C@@H](C(O)[C@H](O)CO)O[C@](O)(C(=O)O)C[C@@H]1O (some centres not stated)

>  <Assigned label>
false (0)

$$$$
>  <Compound>
COc1cc(C(=O)O)cc(OC)c1O

>  <Assigned label>
false (0)

$$$$
>  <Compound>
S=c1[nH]c2ccccc2s1

>  <Assigned label>
false (0)

$$$$
>  <Compound>
CC[C@@]1(C2O[C@@H](C3O[C@@](O)(CC)[C@H](C)C[C@@H]3C)C[C@@H]2C)CC[C@H]([C@]2(C)CCC3(C[C@H](O)[C@@H](C)[C@@H]([C@H](C)[C@@H](OC)[C@H](C)C(=O)O)O3)O2)O1 (some centres not stated)

>  <Assigned label>
false (0)

$$$$
>  <Compound>
CC(=O)O[C@H]1C[C@@H](OC(C)=O)C(C)(C)C2C[C@@H](OC(C)=O)[C@]3(C)C(CC[C@@]4(C)[C@H](c5ccoc5)C(=O)[C@H]5O[C@]543)[C@]21C (some centres not stated)

>  <Assigned label>
false (0)

$$$$
>  <Compound>
OC/C=C/c1ccc(O)c(O)c1

>  <Assigned label>
false (0)

$$$$
>  <Compound>
CN=C1CN(O)C(c2ccccc2)=c2cc(Cl)ccc2=N1

>  <Assigned label>
false (0)

$$$$
>  <Compound>
CCOc1ccc2c(c1)C(C)=CC(C)(C)N2

>  <Assigned label>
false (0)

$$$$
>  <Compound>
NCCCCN=C(N)N

>  <Assigned label>
false (0)

$$$$
>  <Compound>
Nc1nc2c(c(=O)[nH]1)N(C=O)C(CNc1ccc(C(=O)N[C@@H](CCC(=O)O)C(=O)O)cc1)CN2 (some centres not stated)

>  <Assigned label>
false (0)

$$$$
>  <Compound>
CC(=O)C1=C(O)C2C3c4c[nH]c5cccc(c45)CC3C(C)(C)N2C1=O (configuration not stated)

>  <Assigned label>
false (0)

$$$$
>  <Compound>
CN1CCc2cccc3c2C1Cc1ccc(O)c(O)c1-3 (configuration not stated)

>  <Assigned label>
false (0)

$$$$
>  <Compound>
COC(=O)[C@H]1[C@H]2C[C@@H]3c4[nH]c5cc(OC)ccc5c4CCN3C[C@H]2C[C@@H](OC(=O)c2cc(OC)c(OC)c(OC)c2)[C@@H]1OC

>  <Assigned label>
false (0)

$$$$
>  <Compound>
CO[C@@H]1C[C@@H](C[C@H]2CC[C@H](C)[C@H]([C@@H](C)C(=O)O)O2)O[C@]2(O[C@](C)([C@H]3CC[C@@](C)(C4O[C@@H](C5O[C@@](O)(CO)[C@H](C)C[C@@H]5C)C[C@@H]4C)O3)C[C@H]2C)[C@@H]1C (some centres not stated)

>  <Assigned label>
false (0)

$$$$
>  <Compound>
Nc1c(Br)cc(Br)cc1CNC1CCC(O)CC1 (configuration not stated)

>  <Assigned label>
false (0)

$$$$
>  <Compound>
CC1(C)CC2C1CCC1(C)OC1CCC2(C)O (configuration not stated)

>  <Assigned label>
false (0)

$$$$
>  <Compound>
CCCCC(CC)CN=C(N)NC(N)=NCCCCCCN=C(N)NC(N)=NCC(CC)CCCC (configuration not stated)

>  <Assigned label>
true (1)

$$$$
>  <Compound>
CC(=O)Oc1cc(C)c2c(c1C(OC(C)=O)OC(C)=O)Oc1c(c(C)c(OC(C)=O)c3c1C(OC(C)=O)OC3=O)OC2=O (configuration not stated)

>  <Assigned label>
false (0)

$$$$
>  <Compound>
COc1ccccc1N1CCNCC1

>  <Assigned label>
false (0)

$$$$
